- System: AncSZ
- PROCEDURE DETAILS: phosphorylation enrichment, bacterial display (enrichment ratio); higher = better substrate or ligand; peptides without Tyr show the background;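 also: 11-residue human phosphosite peptides and single-mutation variants displayed on the E. coli surface, counted by deep sequencing, each peptide's frequency after selection divided by its frequency in the unselected input library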;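 also: frequency after pTyr selection over input frequency; kinase dosed for 20-30% of maximal phosphorylation in three min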
Hi, to clarify the labels: Yes covers phosphorylation enrichment from 0.6 upward, No covers anything below 0.6.

[
  {
    "SEQUENCE TEXT": "LAGRFYALRSM [CKB_Y174_K177R_YF]",
    "DISCRETE LABEL": "Yes"
  },
  {
    "SEQUENCE TEXT": "GGYTWYCDGKK [PROS1_Y266_C265W]",
    "DISCRETE LABEL": "Yes"
  },
  {
    "SEQUENCE TEXT": "LPKEQYLCTKE [AFG3L2_Y614_Y616C]",
    "DISCRETE LABEL": "Yes"
  },
  {
    "SEQUENCE TEXT": "HCFNSYTFPRL [PAK7_Y316_S312C_YF]",
    "DISCRETE LABEL": "Yes"
  },
  {
    "SEQUENCE TEXT": "SELVCYDARVH [MET_Y971_R970C]",
    "DISCRETE LABEL": "Yes"
  },
  {
    "SEQUENCE TEXT": "FEGAIYRKDVG [GART_Y417]",
    "DISCRETE LABEL": "Yes"
  },
  {
    "SEQUENCE TEXT": "PRDSGYSFETI [MAP1B_Y1921_S1917R_YF]",
    "DISCRETE LABEL": "Yes"
  },
  {
    "SEQUENCE TEXT": "VECRVYAEDPY [PCCA_Y401]",
    "DISCRETE LABEL": "Yes"
  },
  {
    "SEQUENCE TEXT": "YSKDNYKRVTG [PANK2_Y405]",
    "DISCRETE LABEL": "Yes"
  },
  {
    "SEQUENCE TEXT": "PSNTDYPGPHS [TP63_Y171]",
    "DISCRETE LABEL": "Yes"
  }
]

Query: API: above_or_equal(metric=phosphorylation enrichment, cutoff=0.6) for item YGLPRYRWLTH [TSPAN12_Y143]
Reply: Yes

Query: API: above_or_equal(metric=phosphorylation enrichment, cutoff=0.6) for item DALDNYVIRGV [PCCA_Y473]
Reply: Yes

Query: API: above_or_equal(metric=phosphorylation enrichment, cutoff=0.6) for item QNRELYSEGLG [CNKSR1_Y665]
Reply: No

Query: API: above_or_equal(metric=phosphorylation enrichment, cutoff=0.6) for item LQLLGHRPVFS [CHST6_Y358_Y358H_YF]
Reply: Yes

* * *

- TARGET SYSTEM: EPHB2 (UniProt P29323)
- Sequence (P29323 whole entry, looked up): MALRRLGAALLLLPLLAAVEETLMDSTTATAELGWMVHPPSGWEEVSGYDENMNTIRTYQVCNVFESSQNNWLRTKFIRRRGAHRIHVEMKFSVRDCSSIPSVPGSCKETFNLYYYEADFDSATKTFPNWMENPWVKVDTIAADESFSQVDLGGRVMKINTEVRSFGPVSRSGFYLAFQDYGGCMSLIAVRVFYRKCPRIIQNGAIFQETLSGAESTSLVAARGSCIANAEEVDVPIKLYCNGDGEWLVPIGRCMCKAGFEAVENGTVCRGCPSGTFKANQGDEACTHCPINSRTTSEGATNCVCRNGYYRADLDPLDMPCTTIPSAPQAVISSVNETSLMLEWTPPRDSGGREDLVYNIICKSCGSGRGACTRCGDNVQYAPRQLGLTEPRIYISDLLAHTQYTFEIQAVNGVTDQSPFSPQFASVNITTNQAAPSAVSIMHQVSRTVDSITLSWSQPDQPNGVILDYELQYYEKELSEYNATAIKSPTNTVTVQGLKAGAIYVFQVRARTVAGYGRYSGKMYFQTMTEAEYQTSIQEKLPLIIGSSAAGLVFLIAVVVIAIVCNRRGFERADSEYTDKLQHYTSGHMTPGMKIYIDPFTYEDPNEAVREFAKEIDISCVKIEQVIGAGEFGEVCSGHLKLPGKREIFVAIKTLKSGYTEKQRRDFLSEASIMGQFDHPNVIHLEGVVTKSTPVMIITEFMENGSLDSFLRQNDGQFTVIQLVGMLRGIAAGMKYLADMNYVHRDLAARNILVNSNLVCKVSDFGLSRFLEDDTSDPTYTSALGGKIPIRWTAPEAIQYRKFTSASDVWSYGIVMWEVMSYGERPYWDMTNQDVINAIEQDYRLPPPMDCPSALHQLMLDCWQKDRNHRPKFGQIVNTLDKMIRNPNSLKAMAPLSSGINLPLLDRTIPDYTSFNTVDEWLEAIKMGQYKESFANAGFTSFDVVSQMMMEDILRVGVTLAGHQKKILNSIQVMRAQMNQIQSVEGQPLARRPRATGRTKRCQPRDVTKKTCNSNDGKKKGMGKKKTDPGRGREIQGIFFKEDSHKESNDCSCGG
- PROCEDURE DETAILS: phosphorylation enrichment, bacterial display (enrichment ratio); higher = better substrate or ligand; peptides without Tyr show the background
Hi, to clarify the labels: fulfilled covers phosphorylation enrichment from 0.7 upward, not fulfilled covers anything below 0.7.

Query: API: above_or_equal(metric=phosphorylation enrichment, cutoff=0.7) for item LTELGYSFVTT [ACTA1_Y200_R198L]
Reply: fulfilled

Query: API: above_or_equal(metric=phosphorylation enrichment, cutoff=0.7) for item HNLDYYKQTTN [FGFR3_Y648_K650Q]
Reply: not fulfilled

Query: API: above_or_equal(metric=phosphorylation enrichment, cutoff=0.7) for item AAGGRYFGLVG [HARS1_Y363_D364Y_YF]
Reply: not fulfilled

Query: API: above_or_equal(metric=phosphorylation enrichment, cutoff=0.7) for item HIKHNYECLVY [XRCC5_Y416]
Reply: fulfilled

Query: API: above_or_equal(metric=phosphorylation enrichment, cutoff=0.7) for item QAINEYEKWLE [MAP9_Y603]
Reply: fulfilled

* * *

- Tested on: c-Abl (mouse)
- PROCEDURE DETAILS: phosphorylation enrichment, bacterial display (enrichment ratio); higher = better substrate or ligand; peptides without Tyr show the background
Would you mind classing the entries by phosphorylation enrichment? Ranges: bottom = under 0.6, middle = from 0.6 up to 0.9, top = 0.9 and over

Here's what some known entries look like.
[
  {
    "SEQUENCE TEXT": "KSIEEYLKLVG [RASAL2_Y381]",
    "DISCRETE LABEL": "bottom"
  },
  {
    "SEQUENCE TEXT": "IENKLCGMSDP [RET_Y1062_Y1062C]",
    "DISCRETE LABEL": "middle"
  },
  {
    "SEQUENCE TEXT": "YSKDNYKRVTG [PANK2_Y405]",
    "DISCRETE LABEL": "bottom"
  }
]

Query: Please let me know in which category the item FDCKWYIPLTD [BCR_Y756_YF] belongs.
Reply: middle

Query: Please let me know in which category the item RSLLQYGGSAN [ANK1_Y624] belongs.
Reply: top

Query: Please let me know in which category the item TEQDPSNNIVR [MMUT_Y364_Y364S] belongs.
Reply: middle

* * *

- TARGET SYSTEM: MERTK (UniProt Q12866)
- Sequence (Q12866 whole entry, looked up): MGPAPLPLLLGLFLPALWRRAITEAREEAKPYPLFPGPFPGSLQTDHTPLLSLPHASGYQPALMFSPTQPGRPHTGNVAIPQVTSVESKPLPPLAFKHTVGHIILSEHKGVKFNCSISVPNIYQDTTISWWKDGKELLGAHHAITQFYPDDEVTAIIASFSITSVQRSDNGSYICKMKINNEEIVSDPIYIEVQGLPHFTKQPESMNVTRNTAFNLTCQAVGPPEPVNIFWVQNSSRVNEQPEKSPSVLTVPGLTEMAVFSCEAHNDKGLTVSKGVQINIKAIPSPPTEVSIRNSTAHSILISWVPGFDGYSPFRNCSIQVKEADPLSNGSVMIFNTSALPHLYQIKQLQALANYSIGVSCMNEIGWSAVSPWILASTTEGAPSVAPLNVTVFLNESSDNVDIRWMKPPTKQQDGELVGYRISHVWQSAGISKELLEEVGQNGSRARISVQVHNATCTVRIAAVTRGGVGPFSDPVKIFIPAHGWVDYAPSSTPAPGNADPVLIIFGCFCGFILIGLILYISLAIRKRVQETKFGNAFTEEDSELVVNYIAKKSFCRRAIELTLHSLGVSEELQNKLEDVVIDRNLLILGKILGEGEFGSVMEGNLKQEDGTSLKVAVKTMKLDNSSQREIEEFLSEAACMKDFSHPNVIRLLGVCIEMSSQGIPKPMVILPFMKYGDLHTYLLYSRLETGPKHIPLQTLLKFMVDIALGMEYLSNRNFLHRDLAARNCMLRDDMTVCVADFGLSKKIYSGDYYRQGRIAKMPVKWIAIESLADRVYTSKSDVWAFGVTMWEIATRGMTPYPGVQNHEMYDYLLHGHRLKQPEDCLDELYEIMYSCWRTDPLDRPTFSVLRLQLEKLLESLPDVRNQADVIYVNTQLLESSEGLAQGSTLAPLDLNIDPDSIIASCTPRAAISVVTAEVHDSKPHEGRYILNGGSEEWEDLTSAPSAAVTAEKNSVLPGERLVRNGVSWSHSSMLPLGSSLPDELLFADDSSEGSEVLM
- PROCEDURE DETAILS: phosphorylation enrichment, bacterial display (enrichment ratio); higher = better substrate or ligand; peptides without Tyr show the background
ENDPOINT LABEL: phosphorylation enrichment

Worked cases, phosphorylation enrichment given:
[
  {
    "SEQUENCE TEXT": "LVRPPYSFLAL [FOXI1_Y126_S129L_YF]",
    "MEASURED VALUE": 1.05
  },
  {
    "SEQUENCE TEXT": "ADKAAYLQSLN [MYH2_Y389]",
    "MEASURED VALUE": 0.476
  },
  {
    "SEQUENCE TEXT": "DGKYSYLKVGH [GRM3_Y480_G475D]",
    "MEASURED VALUE": 0.44
  }
]

Query: Find the recorded phosphorylation enrichment belonging to CTTIHYNFTCN [TP53_Y234_M237T_YF] and report it.
Reply: 0.42

Query: Find the recorded phosphorylation enrichment belonging to IEDPFYGNDSD [ACP1_Y133_YF] and report it.
Reply: 0.487

Query: Find the recorded phosphorylation enrichment belonging to GVSFIYTIDGS [DCX_Y105_R102S_YF] and report it.
Reply: 0.552

Query: Find the recorded phosphorylation enrichment belonging to FLAVGYHQPHI [IDS_Y225_K227Q] and report it.
Reply: 0.298

Query: Find the recorded phosphorylation enrichment belonging to YIATQYSLRPR [LBR_Y166] and report it.
Reply: 0.731

Query: Find the recorded phosphorylation enrichment belonging to ETKAFYPEEIS [HSPA1A_Y115] and report it.
Reply: 0.408

Query: Find the recorded phosphorylation enrichment belonging to NDLMEYPKQHG [ASS1_Y163_A164P] and report it.
Reply: 0.45

Query: Find the recorded phosphorylation enrichment belonging to TAALWYIYLHT [ENG_Y612_S615L] and report it.
Reply: 0.516

Query: Find the recorded phosphorylation enrichment belonging to NDQANYLLNTD [ADA_Y290_S291L] and report it.
Reply: 0.395

Query: Find the recorded phosphorylation enrichment belonging to LITTLYSGFLG [KCNQ1_Y267_I268S] and report it.
Reply: 3.39

* * *

- Test system: c-Abl (mouse)
- PROCEDURE DETAILS: phosphorylation enrichment, bacterial display (enrichment ratio); higher = better substrate or ligand; peptides without Tyr show the background
Would you mind classing the entries by phosphorylation enrichment? Ranges: lower band = under 0.5, central band = from 0.5 up to 0.6, upper band = 0.6 and over

[
  {
    "SEQUENCE TEXT": "PYRFIYMAVQH [PTPN11_Y515_Q510P]",
    "TARGET SYSTEM": "c-Abl (mouse)",
    "DISCRETE LABEL": "upper band"
  }
]

Query: Please let me know in which category the item KIKLNYTLPQD [NRAP_Y523_N519I] belongs.
Reply: central band

Query: Please let me know in which category the item LIHLHYIRRDF [BBS4_Y43_K46R_YF] belongs.
Reply: lower band

Query: Please let me know in which category the item SLKEFYGEDAK [ALDH3A1_Y272] belongs.
Reply: central band

* * *

- Tested on: c-Src
- PROCEDURE DETAILS: phosphorylation enrichment, bacterial display (enrichment ratio); higher = better substrate or ligand; peptides without Tyr show the background
phosphorylation enrichment listing for selected sequences.

Worked cases, phosphorylation enrichment given:
[
  {
    "SEQUENCE TEXT": "QQLQGYIPSNF [FRK_Y99_YF]",
    "phosphorylation enrichment": 0.546
  },
  {
    "SEQUENCE TEXT": "HRAVEYLLTGI [RAD23A_Y197]",
    "phosphorylation enrichment": 0.458
  },
  {
    "SEQUENCE TEXT": "AVAFVYYKSIG [ADGRL4_Y301]",
    "phosphorylation enrichment": 0.489
  },
  {
    "SEQUENCE TEXT": "YNNYGYGSDGF [HNRNPH3_Y161_N163S]",
    "phosphorylation enrichment": 0.505
  },
  {
    "SEQUENCE TEXT": "SLDLSYYHTSS [EMD_Y181_P183H]",
    "phosphorylation enrichment": 0.524
  },
  {
    "SEQUENCE TEXT": "SVTCTYSPAFN [TP53_Y126_L130F]",
    "phosphorylation enrichment": 0.66
  }
]

Query: Recall the recorded phosphorylation enrichment for TVLGEYASPKG [CYP24A1_Y407_L409S] with c-Src and state it.
Reply: 0.468

Query: Recall the recorded phosphorylation enrichment for FPCSVYMPDEW [INSR_Y1011_V1012M] with c-Src and state it.
Reply: 3.15

Source of measurements: the supplement of paper PMC10065799
